# System: TAB113
# Protocol Summary: qHTS profiling for inhibitors of Plasmodium falciparum proliferation (AID 504749); note: nearly all actives have a fitted effect of over 60% in size
# Condition Notes: P. falciparum in erythrocytes, SYBR Green DNA, 72 h; series mostly up to 28.7 µM
Records with an inconclusive call do not appear. Active and inactive are the calls of the source. Calls come from the whole dose curve; as a rule, active = well fitted inhibition curve with a large enough effect; inconclusive = small, poorly fitted or top-dose-only effect; inactive = flat fitted curve, though single readings scatter.
Labels: yes (1) (active), no (0) (inactive)

Compound	Classification
Cc1cn([C@H]2CC(F)[C@@H](CO)O2)c(=O)[nH]c1=O (some centres not stated)	no (0)
CO[C@H]1/C=C/O[C@@]2(C)Oc3c(C)c(O)c4c(O)c(c5c(c4c3C2=O)NC2(CCN(CC(C)C)CC2)N=5)=NC(=O)/C(C)=C\C=C\[C@H](C)[C@H](O)[C@@H](C)[C@@H](O)[C@@H](C)[C@H](OC(C)=O)[C@@H]1C	yes (1)
OCC1O[C@@H](O[C@@H]2C(CO)OC(O)C(O)C2O)C(O)C(O)C1O (some centres not stated)	no (0)
CC1=C(C/C=C(\C)CCCC(C)CCCC(C)CCCC(C)C)C(=O)c2ccccc2C1=O (configuration not stated)	yes (1)
C[C@H](O)[C@@H]1C(=O)N2C(C(=O)O)=C(SCCN=CN)C[C@@H]12	no (0)
CC(=O)OC1C([N+]2(C)CCCCC2)C[C@H]2C3CC[C@H]4C[C@H](OC(C)=O)C([N+]5(C)CCCCC5)CC4(C)C3CCC12C (some centres not stated)	no (0)
CC(C)C(=O)OCC(=O)[C@@]12OC(C3CCCCC3)O[C@@H]1CC1C3CCC4=CC(=O)C=C[C@]4(C)C3[C@@H](O)C[C@@]12C (some centres not stated)	yes (1)

====

# Protocol Summary: NFAT Signaling Pathway (AID 444);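 note: carbachol stimulus at about its EC50 of 1 µM final; % is set by controls: 0 for no effect and ±100 for the full control effect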
# Condition Notes: Jurkat NFAT-bla M1, carbachol, beta-lactamase ratio, 5 h; at 17.2 µM (top of the series) unless noted
Results filed as inconclusive are left out.
activity change, negative = inhibition for assorted compounds
Measured Parameter: activity change, negative = inhibition (%)

Compound	U	Data Value
COc1cccc(N2CCN(c3ncnc4c3[nH]c3ccc(F)cc34)CC2C)c1 (stereo unspecified)	%	-137
Cc1ccc(-c2nnc(OCCN3CCOCC3)c3ccccc23)cc1	%	5.38
O=c1c(F)cn(C2CCCO2)c(=O)n1Cc1ccccc1Cl (stereo unspecified)	%	-19.1
COc1ccc(OC)c(C2C(C#N)=C(N)Oc3cc(C)[nH]c(=O)c32)c1 (stereo unspecified)	%	-4.06
N/C(CCCN1CCCCC1)=N/O	%	-3.1
COc1cc(C2C(C(C)=O)=C(O)C(=O)N2c2ccc(Br)cn2)ccc1O (stereo unspecified)	%	-15.5

====

activity, negative = inhibition for assorted compounds
# Protocol Summary: Stat Signaling Pathway (AID 446);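 note: ME-180 cervical cancer cells given 40 pM IL-6 alongside compound; SIE-controlled beta-lactamase reporter measured as 460/530 nm FRET emission ratio; % is set by controls: 0 for no effect and ±100 for the full control effect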
# Condition Notes: ME-180 (cervical carcinoma) SIE beta-lactamase reporter, IL-6 stimulated, 5 h; at 17.2 µM (top of the series) unless noted
Inconclusive results are not listed.
Measured Parameter: activity, negative = inhibition (%)

Compound	Data Value
COc1ccc(/C(O)=C2\C(=O)C(=O)N(CCN3CCOCC3)C2c2ccccc2OC)cc1 (stereo unspecified)	-2.59
CCCCC(=O)C1CCN(Cc2ccccc2)CC1	3.33
COc1cc(C2C3C(=O)N(c4ccccc4)C(=O)C3ON2c2ccccc2)ccc1O (stereo unspecified)	-2.83
O=C1c2ccccc2C(=O)N1CC1c2ccccc2CCN1C(=O)N1CCOCC1 (stereo unspecified)	1.92
CN(C)CC(O)COc1cccc(OCC(O)CN(C)C)c1 (stereo unspecified)	3.74
Cn1c(=NCC(O)COc2ccccc2)sc2ccccc21 (stereo unspecified)	8.49
CCn1cc(C(=O)NCCCN(C)C)c(=O)c2cc(F)c(N3CCN(C)CC3)cc21	3.71
O=C(O)C1CSCN1S(=O)(=O)c1cccc2nsnc12 (stereo unspecified)	-1.2
CC1(C)Cc2c(C#N)c(SCC(=O)c3ccccc3)nc(N3CCOCC3)c2CS1	0.377
Cc1c(/C(O)=C2\C(=O)C(=O)N(CCCN(C)C)C2c2ccccc2)cnn1-c1ccccc1 (stereo unspecified)	0.518
Cc1ccc(Cn2ncc3c(N4CCN(Cc5ccc(Cl)cc5)CC4)ncnc32)cc1	-14.5
